Assay overview: Solubility of empagliflozin in supercritical carbon dioxide (isobaric-isothermal method, UV-Vis at 276 nm)
Type: physicochemical
Condition info: supercritical carbon dioxide (ScCO2), thermodynamic from solid, 338 K, 21 MPa, ScCO2 density 710 kg/m^3; read-out: S (equilibrium solubility) in ScCO2
Excerpt: The detailed discussion of the solubility apparatus and equilibrium cell has been presented in our earlier studies (Fig. 2)[19],[25],[40],[41]. However, a brief description about the apparatus is presented in this section. […] Further, the above quantities are given as:2 nsolute=Cs·Vs/Ms 3 nCO2=V1·ρ/MCO2 where Cs is the drug concentration in saturated sample vial in g/L. The volume of the sampling loop and vial collection are V1(L) = 600 × 10^–6 m^3 and Vs(L) = 5 × 10^–3 m^3, respectively. […]
Measured endpoint: solubility thermodynamic at 60 min (µg/mL)
Answers are plain numbers, in µg/mL.

input: Consider the compound shown here: OC[C@H]1O[C@@H](c2ccc(Cl)c(Cc3ccc(O[C@H]4CCOC4)cc3)c2)[C@H](O)[C@@H](O)[C@@H]1O What is its recorded solubility thermodynamic at 60 min?
output: 165

====

Assay overview: Solubility of empagliflozin in supercritical carbon dioxide (isobaric-isothermal method, UV-Vis at 276 nm)
Format: physicochemical
Condition info: supercritical carbon dioxide (ScCO2), thermodynamic from solid, 308 K, 15 MPa, ScCO2 density 817 kg/m^3; read-out: S (equilibrium solubility) in ScCO2
Measured endpoint: solubility thermodynamic at 60 min (µg/mL)
Numbers only, in µg/mL.

input: Request the reported solubility thermodynamic at 60 min associated with OC[C@H]1O[C@@H](c2ccc(Cl)c(Cc3ccc(O[C@H]4CCOC4)cc3)c2)[C@H](O)[C@@H](O)[C@@H]1O [empagliflozin]
output: 106

====

Assay overview: Solubility of empagliflozin in supercritical carbon dioxide (isobaric-isothermal method, UV-Vis at 276 nm)
Assay type: physicochemical
Condition info: supercritical carbon dioxide (ScCO2), thermodynamic from solid, 318 K, 15 MPa, ScCO2 density 744 kg/m^3; read-out: S (equilibrium solubility) in ScCO2
Measured endpoint: solubility thermodynamic at 60 min (µg/mL)
Numbers only, in µg/mL.

input: Would you mind telling me what solubility thermodynamic at 60 min value was observed for OC[C@H]1O[C@@H](c2ccc(Cl)c(Cc3ccc(O[C@H]4CCOC4)cc3)c2)[C@H](O)[C@@H](O)[C@@H]1O ?
output: 90.1

====

Assay overview: Solubility of empagliflozin in supercritical carbon dioxide (isobaric-isothermal method, UV-Vis at 276 nm)
Assay type: physicochemical
Condition info: supercritical carbon dioxide (ScCO2), thermodynamic from solid, 338 K, 27 MPa, ScCO2 density 783 kg/m^3; read-out: S (equilibrium solubility) in ScCO2
Measured endpoint: solubility thermodynamic at 60 min (µg/mL)
One number for each entry, in µg/mL.

input: Name the reported solubility thermodynamic at 60 min value associated with the molecule OC[C@H]1O[C@@H](c2ccc(Cl)c(Cc3ccc(O[C@H]4CCOC4)cc3)c2)[C@H](O)[C@@H](O)[C@@H]1O [empagliflozin]
output: 208

====

Assay overview: Solubility of empagliflozin in supercritical carbon dioxide (isobaric-isothermal method, UV-Vis at 276 nm)
Assay type: physicochemical
Condition info: supercritical carbon dioxide (ScCO2), thermodynamic from solid, 328 K, 12 MPa, ScCO2 density 509 kg/m^3; read-out: S (equilibrium solubility) in ScCO2
Measured endpoint: solubility thermodynamic at 60 min
Quick note: number first, unit second.

input: Quick one: solubility thermodynamic at 60 min of OC[C@H]1O[C@@H](c2ccc(Cl)c(Cc3ccc(O[C@H]4CCOC4)cc3)c2)[C@H](O)[C@@H](O)[C@@H]1O ?
output: 31.9 µg/mL
